// reported pIC50 per item
- study.system: wildtype HIV-1 protease (Human immunodeficiency virus type 1 group M subtype B)
Scale explanation: pIC50 corresponds to minus log10 of a concentration expressed in moles per litre.

Check out these entries, answers already filled in.
• COC(=O)N[C@H](C(=O)Nc1ccccc1CC[C@@H]1CN[C@H](c2cc3ccc(Cl)cc3[nH]2)CO1)C(c1ccccc1)c1ccccc1 = 7.12
• COC(=O)N[C@H](C(=O)Nc1ccccc1CC[C@@H]1CN[C@H](c2cc3cc(C(F)(F)F)ccc3[nH]2)CO1)C(c1ccccc1)c1ccccc1 = 6.82
• COC(=O)N[C@H](C(=O)Nc1ccccc1CC[C@@H]1CN[C@H](c2nc3ccc(OC)cc3[nH]2)CO1)C(c1ccccc1)c1ccccc1 = 9.48
• COC(=O)N[C@H](C(=O)Nc1ccccc1CC[C@@H]1CN[C@H](c2nc3cc(Cl)c(Cl)cc3[nH]2)CO1)C(c1ccccc1)c1ccccc1 [Example 85] = 9.40
• COC(=O)N[C@H](C(=O)Nc1ccccc1CC[C@@H]1CN[C@H](c2nnn[nH]2)CO1)C(c1ccccc1)c1ccccc1 [Example 77] = 8.46
• Cc1cc2nc([C@@H]3CO[C@H](CCc4c(F)cncc4NC(=O)C4(Cc5ccccc5Cl)CC4)CN3)[nH]c2cc1C = 8.39
• COC(=O)N[C@H](C(=O)Nc1ccccc1CC[C@@H]1CN[C@H](c2nc3cc(F)c(Cl)cc3[nH]2)CO1)C(c1ccccc1)c1ccccc1 = 9.18
• COC(=O)N[C@H](C(=O)Nc1ccccc1CC[C@@H]1CN[C@H](c2cc3cnccc3[nH]2)CO1)C(c1ccccc1)c1ccccc1 = 6.26

Note: attention shifts to another entry.
Prompt: Reported pIC50 for wildtype HIV-1 protease (Human immunodeficiency virus type 1 group M subtype B), given COC(=O)N[C@H](C(=O)Nc1cnccc1CC[C@@H]1CN[C@H](c2nc3cc(C)c(C)cc3[nH]2)CO1)C(c1ccccc1)c1ccccc1 ?
Response: 10.40

* * *

- study.system: UniProt:P04585
// reported IC50 per item
Hi! Could you send only the number? It should be in nM, unit omitted.

Prompt: Reported IC50 for UniProt:P04585, given COC(=O)N[C@H](C(=O)Nc1ccccc1CC[C@@H]1CN[C@H](c2[nH]c3ccccc3c2C=[N+](C)C)CO1)C(c1ccccc1)c1ccccc1 ?
Response: 68

Prompt: Reported IC50 for UniProt:P04585, given COC(=O)N[C@H](C(=O)Nc1ccccc1CC[C@@H]1CN[C@H](c2nc3ccncc3[nH]2)CO1)C(c1ccccc1)c1ccccc1 ?
Response: 7.41

Prompt: Reported IC50 for UniProt:P04585, given COC(=O)N[C@H](C(=O)Nc1ccccc1CC[C@@H]1CN[C@H](c2nc3ccc(C#N)cc3[nH]2)CO1)C(c1ccccc1)c1ccccc1 ?
Response: 1.59

Prompt: Reported IC50 for UniProt:P04585, given COC(=O)N[C@H](C(=O)Nc1ccccc1CC[C@@H]1CN[C@H](c2nc3ccccc3n2C)CO1)C(c1ccccc1)c1ccccc1 ?
Response: 7.96

Prompt: Reported IC50 for UniProt:P04585, given COC(=O)N[C@H](C(=O)Nc1ccccc1CC[C@@H]1CN[C@H](c2nc3ccc(C(F)(F)F)cc3[nH]2)CO1)C(c1ccccc1)c1ccccc1 ?
Response: 0.504

Prompt: Reported IC50 for UniProt:P04585, given COC(=O)N[C@H](C(=O)Nc1ccccc1CC[C@@H]1CN[C@H](c2nc3c(Cl)cc(C(F)(F)F)cc3[nH]2)CO1)C(c1ccccc1)c1ccccc1 ?
Response: 65.6

Prompt: Reported IC50 for UniProt:P04585, given COC(=O)N[C@H](C(=O)Nc1ccccc1CC[C@@H]1CN[C@H](c2cc3cc(Cl)ccc3[nH]2)CO1)C(c1ccccc1)c1ccccc1 ?
Response: 70.2
